In this section we review reported Intensity (against -ve control) values for a set of binders.
# TARGET OR SYSTEM: T1, Human receptor grade IGFBP-3 (insulin-like growth factor binding protein 3) (human, UniProt P17936 28-291)
# T1 construct: Bought recombinant protein, overlaid in solution on the VN-peptide array
# T1 sequence (P17936 28-291 limits assumed): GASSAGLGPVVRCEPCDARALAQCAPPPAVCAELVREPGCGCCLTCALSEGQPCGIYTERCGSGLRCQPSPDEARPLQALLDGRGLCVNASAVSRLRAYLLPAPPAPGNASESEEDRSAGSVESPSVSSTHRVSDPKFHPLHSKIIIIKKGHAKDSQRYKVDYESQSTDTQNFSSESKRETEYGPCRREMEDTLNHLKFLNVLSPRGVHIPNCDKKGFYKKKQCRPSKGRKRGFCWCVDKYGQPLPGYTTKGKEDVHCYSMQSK
# ASSAY METHOD TEXT: VN-peptide array, ligand overlay, immunoblot/ECL, TotalLab spot intensity
Where no end group is shown, it is not given here.

Worked set:
KPEGIDSRPETLHPGR (not fully specified (N-terminus); also: free end capped by acetylation, immobilised on cellulose membrane (SPOT synthesis)) [VN-peptide 2A (array grid C12)] | 4 fold over negative controls
QYWEYQFQHQPSQEEC (not fully specified (N-terminus); also: free end capped by acetylation, immobilised on cellulose membrane (SPOT synthesis)) [VN-peptide 4B (array grid F13)] | 12 fold over negative controls

Item Ac-RRVDTVDPPYPRSIAQ (also: immobilised on cellulose membrane) [VN-peptide 8D (array grid J7)] has what recorded Intensity (against -ve control)?
4 fold over negative controls
